Reference source: ChEMBL document CHEMBL3232809

Exercise: state measured MIC for each of the compounds provided.
system: Enterococcus faecium; test: Antimicrobial activity against vancomycin-resistant Enterococcus faecium; assay type: functional

{"columns": ["Compound", "MIC"],
 "data": [
  ["CCCCCCCCCCC/C(NCCCOC(C)C)=C1/C(=O)N[C@@H](CCCC(=O)NCCCOC(C)C)C1=O", "> 64 µg/mL"],
  ["C/C(NCCOc1ccccc1Cl)=C1/C(=O)CN(C(=O)OC(C)(C)C)C1=O", "> 64 µg/mL"],
  ["CCCCCC/C(Nc1ccc(N2CCOCC2)cc1)=C1\\C(=O)CNC1=O", "> 32 µg/mL"]
]}

List reported MIC for each of these compounds:
1. COCCOC(=O)[C@]12CO[C@H](C(C)(C)C)N1C(=O)/C(=C(\C)NCCOc1ccccc1)C2=O
2. CCOC(=O)[C@]12CO[C@H](C(C)(C)C)N1C(=O)/C(=C(/CC13CC4CC(C)(CC(C)(C4)C1)C3)NC(C)CCCN(CC)CC)C2=O (stereo partly drawn)

Response:
1. > 32 µg/mL
2. > 32 µg/mL

Look up MIC for the entries below, preserving their order.
1. CCCCCCCCC/C(NC(C)CCCN(CC)CC)=C1/C(=O)N2[C@@H](C(C)(C)C)OC[C@]2(C(=O)OC)C1=O (stereo partly drawn)
2. COC(=O)[C@@]12CO[C@@H](C(C)(C)C)N1C(=O)/C(=C(\C)NCC1CCC3CC1C3(C)C)C2=O (stereo partly drawn)

Response:
8 µg/mL
> 32 µg/mL

Query: Notebook: pull reported MIC for Enterococcus faecium, entry `COC(=O)[C@]12CO[C@H](C(C)(C)C)N1C(=O)/C(=C(/CCCOc1ccccc1)NCCCOC(C)C)C2=O`
Response: > 32 µg/mL

====

tested on: Staphylococcus aureus; experiment: Antimicrobial activity against Staphylococcus aureus Oxford; type: functional
Value kind: MIC

Consider the worked cases shown below.
{"columns": ["Molecule", "Value kind", "Recorded value"],
 "data": [
  ["CCCCCCC(=O)N1CC(=O)/C(=C(\\CCCCCC)NC2CCCCC2)C1=O", "MIC", "> 32 µg/mL"],
  ["CCCCCCCCCCC/C(NCCCOC(C)C)=C1/C(=O)N[C@@H](CCCC(=O)NCCCOC(C)C)C1=O", "MIC", "> 64 µg/mL"],
  ["COCCOC(=O)[C@]12CO[C@H](C(C)(C)C)N1C(=O)/C(=C(\\C)NCCOc1ccccc1)C2=O", "MIC", "> 32 µg/mL"],
  ["C/C(NC12CC3CC(CC(C3)C1)C2)=C1\\C(=O)N2[C@H](C(C)(C)C)OC[C@@]2(C)C1=O (mixture of isomers)", "MIC", "> 64 µg/mL"],
  ["CCCC(=O)N1CC(=O)/C(=C(\\CC23CC4CC(C)(CC(C)(C4)C2)C3)NCCCN2CCOCC2)C1=O", "MIC", "> 64 µg/mL"]
]}

Hi team, please reply with MIC for each item in this list.
1. CCCC(=O)N1CC(=O)/C(=C(\CC23CC4CC(CC(C4)C2)C3)NCCCN2CCCCC2C)C1=O (centres undefined)
2. CCCCOCCCN/C(C)=C1/C(=O)N2[C@@H](C(C)(C)C)OC[C@]2(C(=O)OCC)C1=O
3. CCCCCCCCCCC/C(NCCCOC(C)C)=C1\C(=O)CNC1=O
4. C/C(NCCOc1ccccc1Cl)=C1/C(=O)CNC1=O
5. CCOC(=O)[C@]12CO[C@H](C(C)(C)C)N1C(=O)/C(=C(\C)N1CCN(C3CCCCC3)CC1)C2=O
6. CCCC(=O)N1CC(=O)/C(=C(\CCCCc2ccccc2)NC2CC(C)(C)N(C)C(C)(C)C2)C1=O

Response:
1. 64 µg/mL
2. > 32 µg/mL
3. 16 µg/mL
4. > 32 µg/mL
5. > 32 µg/mL
6. > 32 µg/mL
